system under test: HisAviTEV-hSTING (139-342) human REF-mutated protein (Homo sapiens, UniProt Q86WV6)
Construct: made in house; host or cells: E. coli Rosetta 2 (DE3), co-expressed with BirA (1-321)
Sequence (Q86WV6 with tags, fused parts or gaps, change not shown): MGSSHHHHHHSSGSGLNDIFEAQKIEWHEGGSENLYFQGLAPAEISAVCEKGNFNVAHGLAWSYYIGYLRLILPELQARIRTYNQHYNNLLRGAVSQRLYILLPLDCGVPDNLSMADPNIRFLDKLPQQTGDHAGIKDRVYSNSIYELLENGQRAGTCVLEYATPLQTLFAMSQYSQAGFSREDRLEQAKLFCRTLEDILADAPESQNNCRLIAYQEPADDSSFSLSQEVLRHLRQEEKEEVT
protocol summary: Protein thermal shift assay, STING C-terminal binding domain protein
conditions used: test compound final concentration 0.5 mM
parameter: ΔTm Hu-REF (°C)

Would you please look over these solved cases?
compound	system under test	observed result
NCCNc1nc(N)c2ncn([C@@H]3O[C@@H]4COP(=O)(S)O[C@H]5[C@@H](F)[C@H](n6cc7c8c(ncnc86)NCCC7)O[C@@H]5COP(=O)(S)O[C@@H]3[C@@H]4O)c2n1 (single isomer, unassigned) [37b]	HisAviTEV-hSTING (139-342) human REF-mutated protein (Homo sapiens, UniProt Q86WV6)	3.4
O=P1(S)OC[C@H]2O[C@@H](n3cc4c5c(ncnc53)NCCC4)[C@H](O)[C@@H]2OP(=O)(S)OC[C@H]2O[C@@H](n3cnc4c(CO)ncnc43)[C@H](O1)[C@@H]2O (single isomer, unassigned) [17b]	HisAviTEV-hSTING (139-342) human REF-mutated protein (Homo sapiens, UniProt Q86WV6)	2.2

I: NCCNc1nc(N)c2ncn([C@@H]3O[C@@H]4COP(=O)(S)O[C@H]5[C@@H](F)[C@H](n6cc7c8c(ncnc86)NCCC7)O[C@@H]5COP(=O)(S)O[C@@H]3[C@@H]4F)c2n1 (single isomer, unassigned) [45b]
II: O=c1[nH]cnc2c1ncn2[C@@H]1O[C@@H]2COP(=O)(S)O[C@H]3[C@@H](O)[C@H](n4cc5c6c(ncnc64)NCCC5)O[C@@H]3COP(=O)(S)O[C@@H]1[C@@H]2O (single isomer, unassigned) [25b]
(Q) Between I and II , whose recorded ΔTm Hu-REF is greater? Record your answer as the label of the chosen record.
(A) II

* * *

system under test: HisAviTEV-hSTING (139-342) human AQ-mutated protein (Homo sapiens, UniProt Q86WV6, G230A/H232R/R293Q)
Construct: made in house; host or cells: E. coli Rosetta 2 (DE3), co-expressed with BirA (1-321)
Sequence (Q86WV6 with tags, fused parts or gaps G230A/H232R/R293Q): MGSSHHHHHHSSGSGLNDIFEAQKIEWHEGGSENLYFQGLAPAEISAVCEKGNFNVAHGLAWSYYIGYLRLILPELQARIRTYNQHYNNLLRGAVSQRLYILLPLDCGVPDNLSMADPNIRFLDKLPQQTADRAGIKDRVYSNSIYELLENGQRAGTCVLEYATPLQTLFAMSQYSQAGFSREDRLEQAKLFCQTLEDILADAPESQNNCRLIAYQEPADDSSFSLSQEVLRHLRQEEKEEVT
protocol summary: Protein thermal shift assay, STING C-terminal binding domain protein
conditions used: test compound final concentration 0.5 mM
parameter: ΔTm at 500 µM (°C)

compound	observed result
NCCn1cnc2c(ncn2[C@@H]2O[C@@H]3COP(=O)(S)O[C@H]4[C@@H](F)[C@H](n5cc6c7c(ncnc75)NCCC6)O[C@@H]4COP(=O)(S)O[C@@H]2[C@@H]3O)c1=O (single isomer, unassigned) [35a]	13.1
NCCn1cnc2c(ncn2[C@@H]2O[C@@H]3COP(=O)(S)O[C@H]4[C@@H](F)[C@H](n5cc6c7c(ncnc75)SCCC6)O[C@@H]4COP(=O)(S)O[C@@H]2[C@@H]3O)c1=O (single isomer, unassigned) [49b]	16.1
NCCNc1nc(N)c2ncn([C@@H]3O[C@@H]4COP(=O)(S)O[C@H]5[C@@H](F)[C@H](n6cc7c8c(ncnc86)NCCC7)O[C@@H]5COP(=O)(S)O[C@@H]3[C@@H]4O)c2n1 (single isomer, unassigned) [37a]	13.6
O=c1[nH]cnc2c1ncn2[C@@H]1O[C@@H]2COP(=O)(S)O[C@H]3[C@@H](O)[C@H](n4cc5c6c(ncnc64)NCCC5)O[C@@H]3COP(=O)(S)O[C@@H]1[C@@H]2O (single isomer, unassigned) [25a]	15

* * *

system under test: HisAviTEV-hSTING (139-342) human wild-type protein (Homo sapiens, UniProt Q86WV6, H232R)
Construct: made in house; host or cells: E. coli Rosetta 2 (DE3), co-expressed with BirA (1-321)
Sequence (Q86WV6 with tags, fused parts or gaps H232R): as the sequence (Q86WV6 with tags, fused parts or gaps G230A/H232R/R293Q) above, with A131G, Q194R counted along it
protocol summary: Protein thermal shift assay, STING C-terminal binding domain protein
conditions used: test compound final concentration 0.5 mM
parameter: ΔTm at 500 µM (°C)

compound	system under test	parameter	observed result
O=C(CO)NCCn1cnc2c(ncn2[C@@H]2O[C@@H]3COP(=O)(S)O[C@H]4[C@@H](F)[C@H](n5cc6c7c(ncnc75)NCCC6)O[C@@H]4COP(=O)(S)O[C@@H]2[C@@H]3O)c1=O (single isomer, unassigned) [36a]	HisAviTEV-hSTING (139-342) human wild-type protein (Homo sapiens, UniProt Q86WV6, H232R)	ΔTm at 500 µM	10.8
O=C(CO)NCCn1cnc2c(ncn2[C@@H]2O[C@@H]3COP(=O)(S)O[C@H]4[C@@H](F)[C@H](n5cc6c7c(ncnc75)SCCC6)O[C@@H]4COP(=O)(S)O[C@@H]2[C@@H]3O)c1=O (single isomer, unassigned) [50a]	HisAviTEV-hSTING (139-342) human wild-type protein (Homo sapiens, UniProt Q86WV6, H232R)	ΔTm at 500 µM	12.3

* * *

system under test: Human STING (Homo sapiens, UniProt Q86WV6, G230A/H232R/R293Q/R71H)
Sequence (Q86WV6 whole entry R71H/G230A/H232R/R293Q): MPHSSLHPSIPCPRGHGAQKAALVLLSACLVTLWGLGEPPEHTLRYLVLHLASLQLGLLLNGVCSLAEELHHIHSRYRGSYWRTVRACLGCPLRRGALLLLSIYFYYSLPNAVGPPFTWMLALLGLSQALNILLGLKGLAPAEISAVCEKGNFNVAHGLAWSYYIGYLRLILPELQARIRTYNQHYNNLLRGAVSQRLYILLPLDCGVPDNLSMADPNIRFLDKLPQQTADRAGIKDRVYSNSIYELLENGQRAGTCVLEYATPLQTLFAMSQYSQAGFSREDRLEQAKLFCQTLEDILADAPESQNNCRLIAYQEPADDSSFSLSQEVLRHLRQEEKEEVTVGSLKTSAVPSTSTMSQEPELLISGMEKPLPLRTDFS
protocol summary: Reporter gene assay, human STING agonist activity, THP1-Dual cells (HAQ-mutated), IRF pathway
conditions used: THP1-Dual cells IRF EC50, THP1-Dual cells (HAQ-mutated), 24 hours; 100% = maximum count with ML-RR-CDA·2Na+
pEC50: −log10 of the molar value.
parameter: pEC50

molecule	pEC50
NCCNc1nc(N)c2ncn([C@@H]3O[C@@H]4COP(=O)(S)O[C@H]5[C@@H](F)[C@H](n6cc7c8c(ncnc86)NCCC7)O[C@@H]5COP(=O)(S)O[C@@H]3[C@@H]4F)c2n1 (single isomer, unassigned) [45a]	5.92

I: O=c1c2ncn([C@@H]3O[C@@H]4COP(=O)(S)O[C@H]5[C@@H](O)[C@H](n6cc7c8c(ncnc86)NCCC7)O[C@@H]5COP(=O)(S)O[C@@H]3[C@@H]4O)c2ncn1CCCO (single isomer, unassigned) [26a]
II: NCCn1cnc2c(ncn2[C@@H]2O[C@@H]3COP(=O)(S)O[C@H]4[C@@H](O)[C@H](n5cc6c7c(ncnc75)NCCC6)O[C@@H]4COP(=O)(S)O[C@@H]2[C@@H]3F)c1=O (single isomer, unassigned) [40a]
III: O=c1c2ncn([C@@H]3O[C@@H]4COP(=O)(S)O[C@H]5[C@@H](O)[C@H](n6cc7c8c(ncnc86)NCCC7)O[C@@H]5COP(=O)(S)O[C@@H]3C4)c2ncn1CCO (single isomer, unassigned) [38a]
(Q) Please list these in order of increasing pEC50. Thank you! Sort and list the labels as requested.
(A) II, I, III
(II: 5.47, I: 5.85, III: 6.35)

* * *

system under test: HisAviTEV-hSTING (139-342) human AQ-mutated protein (Homo sapiens, UniProt Q86WV6, G230A/H232R/R293Q)
Construct: made in house; host or cells: E. coli Rosetta 2 (DE3), co-expressed with BirA (1-321)
protocol summary: Protein thermal shift assay, STING C-terminal binding domain protein
conditions used: test compound final concentration 0.5 mM
parameter: ΔTm Hu-AQ (°C)

compound	ΔTm Hu-AQ / °C
NCCNc1nc(N)c2ncn([C@@H]3O[C@@H]4COP(=O)(S)O[C@H]5[C@@H](F)[C@H](n6cc7c8c(ncnc86)NCCC7)O[C@@H]5COP(=O)(S)O[C@@H]3[C@@H]4O)c2n1 (single isomer, unassigned) [37b]	9.4
NCCn1cnc2c(ncn2[C@@H]2O[C@@H]3COP(=O)(S)O[C@H]4[C@@H](F)[C@H](n5cc6c7c(ncnc75)NCCC6)O[C@@H]4COP(=O)(S)O[C@@H]2[C@@H]3O)c1=O (single isomer, unassigned) [35b]	12.6

* * *

system under test: HisAviTEV-hSTING (139-342) human REF-mutated protein (Homo sapiens, UniProt Q86WV6)
Construct: made in house; host or cells: E. coli Rosetta 2 (DE3), co-expressed with BirA (1-321)
protocol summary: Protein thermal shift assay, STING C-terminal binding domain protein
conditions used: test compound final concentration 0.5 mM
parameter: ΔTm at 500 µM (°C)

molecule	measurement units	observed result
NCCNc1nc(N)c2ncn([C@@H]3O[C@@H]4COP(=O)(S)O[C@H]5[C@@H](F)[C@H](n6cc7c8c(ncnc86)SCCC7)O[C@@H]5COP(=O)(S)O[C@@H]3[C@@H]4F)c2n1 (single isomer, unassigned) [51b]	°C	4.3
Nc1ncnc2c1ncn2[C@@H]1O[C@@H]2COP(=O)(S)O[C@H]3[C@@H](O)[C@H](n4cc5c6c(ncnc64)NCCC5)O[C@@H]3COP(=O)(S)O[C@@H]1[C@@H]2O (single isomer, unassigned)	°C	3.4

* * *

system under test: His-Avi-TEV-mSTING (138-341) mouse wild-type protein (Mus musculus, UniProt Q3TBT3)
Construct: made in house; host or cells: E. coli Rosetta 2 (DE3), co-expressed with BirA (1-321)
Sequence (Q3TBT3 with tags, fused parts or gaps limits assumed): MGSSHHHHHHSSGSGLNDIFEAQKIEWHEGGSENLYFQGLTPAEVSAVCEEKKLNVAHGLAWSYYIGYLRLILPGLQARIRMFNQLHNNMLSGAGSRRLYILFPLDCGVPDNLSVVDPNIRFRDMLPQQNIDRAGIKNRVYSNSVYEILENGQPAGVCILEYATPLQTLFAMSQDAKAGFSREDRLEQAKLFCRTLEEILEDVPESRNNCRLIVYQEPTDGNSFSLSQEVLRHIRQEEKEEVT
protocol summary: Protein thermal shift assay, STING C-terminal binding domain protein
conditions used: test compound final concentration 0.5 mM
parameter: ΔTm at 500 µM (°C)

compound	observed result
NCCn1cnc2c(ncn2[C@@H]2O[C@@H]3COP(=O)(S)O[C@H]4[C@@H](F)[C@H](n5cc6c7c(ncnc75)SCCC6)O[C@@H]4COP(=O)(S)O[C@@H]2[C@@H]3O)c1=O (single isomer, unassigned) [49b]	19.3
NCCNc1nc(N)c2ncn([C@@H]3O[C@@H]4COP(=O)(S)O[C@H]5[C@@H](F)[C@H](n6cc7c8c(ncnc86)SCCC7)O[C@@H]5COP(=O)(S)O[C@@H]3[C@@H]4F)c2n1 (single isomer, unassigned) [51b]	17
O=c1c2ncn([C@@H]3O[C@@H]4COP(=O)(O)O[C@H]5[C@@H](F)[C@H](n6cc7c8c(ncnc86)NCCC7)O[C@@H]5COP(=O)(S)O[C@@H]3[C@@H]4O)c2ncn1CCO (single isomer, unassigned) [52a]	14.3
O=c1c2ncn([C@@H]3O[C@@H]4COP(=O)(S)O[C@H]5[C@@H](O)[C@H](n6cc7c8c(ncnc86)NCCC7)O[C@@H]5COP(=O)(S)O[C@@H]3[C@@H]4O)c2ncn1CCCO (single isomer, unassigned) [26b]	14.1
NCCn1cnc2c(ncn2[C@@H]2O[C@@H]3COP(=O)(S)O[C@H]4[C@@H](F)[C@H](n5cc6c7c(ncnc75)NCCC6)O[C@@H]4COP(=O)(S)O[C@@H]2[C@@H]3O)c1=O (single isomer, unassigned) [35a]	13.5
O=c1c2ncn([C@@H]3O[C@@H]4COP(=O)(S)O[C@H]5[C@@H](O)[C@H](n6cc7c8c(ncnc86)NCCC7)O[C@@H]5COP(=O)(S)O[C@@H]3[C@@H]4O)c2ncn1CCO (single isomer, unassigned) [6a]	15.7
O=C(CO)NCCn1cnc2c(ncn2[C@@H]2O[C@@H]3COP(=O)(S)O[C@H]4[C@@H](F)[C@H](n5cc6c7c(ncnc75)NCCC6)O[C@@H]4COP(=O)(S)O[C@@H]2[C@@H]3O)c1=O (single isomer, unassigned) [36a]	15.4
O=c1c2ncn([C@@H]3O[C@@H]4COP(=O)(S)O[C@H]5[C@@H](F)[C@H](n6cc7c8c(ncnc86)SCCC7)O[C@@H]5COP(=O)(S)O[C@@H]3[C@@H]4O)c2ncn1CCO (single isomer, unassigned) [48a]	16
